- Tgt: AMP-activated protein kinase, AMPK (Homo sapiens) (UniProt P54646+O43741+P54619+Q9UGJ0+Q9Y478+Q13131+Q9UGI9)
- Procedure details: AMP-dependent Kinase enzyme assay. An in vitro enzyme assay that detects ADP turnover that is directly proportional to AMPK activity. This uses naive AMPK that is activated during the assay with MK-8722
- Format: functional
- Set-up: scale not given: direction of the effect not stated beside the values
- Experimental parameters: 30 µM
Readout kind: Percent Effect (%)

[[record]]
molecule = "CCCN1CCC(N(C)C(=O)c2cc(C)nc3cc(F)ccc23)CC1"
readout_kind = "Percent Effect"
endpoint_value = -6.76

[[record]]
molecule = "CCOCCN1CCN(c2ccc(C#N)cn2)CC1CC (stereo not drawn)"
readout_kind = "Percent Effect"
endpoint_value = 6.68

[[record]]
molecule = "CCC[C@@H]1CN(c2cncc(C(=O)N3CCOCC3)n2)C[C@H]1N(C)C"
readout_kind = "Percent Effect"
endpoint_value = 14.3

[[record]]
molecule = "COC(CNC(=O)c1ccoc1)c1cccc(Cl)c1 (stereo not drawn)"
readout_kind = "Percent Effect"
endpoint_value = -1.5

[[record]]
molecule = "Cc1n[nH]c(C)c1CCN(C)C(=O)c1ccc(CCC(C)(C)O)cc1"
readout_kind = "Percent Effect"
endpoint_value = 2.23

[[record]]
molecule = "CC(CO)NC(=O)Nc1ccc(CC#N)cc1 (stereo not drawn)"
readout_kind = "Percent Effect"
endpoint_value = -1.29

[[record]]
molecule = "Cc1noc(C2CCCN(Cn3cc(Br)cn3)C2)n1 (stereo not drawn)"
readout_kind = "Percent Effect"
endpoint_value = -2.31

[[record]]
molecule = "O=C(CCC1CCCO1)NCCCO (stereo not drawn)"
readout_kind = "Percent Effect"
endpoint_value = -4.81

[[record]]
molecule = "CN(C(=O)c1cccc(C#N)c1)c1nnc(C2CCOC2)s1 (stereo not drawn)"
readout_kind = "Percent Effect"
endpoint_value = 5.31

[[record]]
molecule = "Cc1ccccc1-c1noc(-c2ccc(NCC3COCCO3)nc2)n1 (stereo not drawn)"
readout_kind = "Percent Effect"
endpoint_value = 6.52

[[record]]
molecule = "O=C(NCc1cccnc1N1CCCCC1)c1ccc2cc[nH]c2c1"
readout_kind = "Percent Effect"
endpoint_value = 1.26

[[record]]
molecule = "Cc1nc(C)c(COc2ccc(S(=O)(=O)N(C)C)cc2)s1"
readout_kind = "Percent Effect"
endpoint_value = 4.6

[[record]]
molecule = "Cc1noc(C)c1-c1cccc(C2CCN(S(=O)(=O)N(C)C)CC2)n1"
readout_kind = "Percent Effect"
endpoint_value = 5.6

[[record]]
molecule = "COc1ccc(C(=O)N2C[C@@H](NC(=O)N(C)C)[C@H](C(C)C)C2)c(OC)n1"
readout_kind = "Percent Effect"
endpoint_value = 1.82

[[record]]
molecule = "O=C(c1coc(-c2ccccc2)n1)N1CCCCC1"
readout_kind = "Percent Effect"
endpoint_value = 0.702

[[record]]
molecule = "COc1cc(COCC2CCN(Cc3cccnc3)CC2)cc(OC)c1"
readout_kind = "Percent Effect"
endpoint_value = 1.38

[[record]]
molecule = "Cc1ccc(CNC(=O)c2ccc(=O)n(C)n2)c(OCC2CC2)c1"
readout_kind = "Percent Effect"
endpoint_value = 14.4

[[record]]
molecule = "Cc1cccc(CN2CCCC2c2cccc(Nc3nccs3)n2)c1 (stereo not drawn)"
readout_kind = "Percent Effect"
endpoint_value = 6.23

[[record]]
molecule = "Cc1ccc(-c2noc(C3CCN3C(=O)c3ccc(=O)[nH]n3)n2)s1 (stereo not drawn)"
readout_kind = "Percent Effect"
endpoint_value = 19.2

[[record]]
molecule = "CC(C)COc1cncc(N2CCCN(c3ncccn3)CC2)n1"
readout_kind = "Percent Effect"
endpoint_value = 65.1

[[record]]
molecule = "CCNc1ncc(C(=O)NCc2csc(C)n2)cn1"
readout_kind = "Percent Effect"
endpoint_value = -2.12

[[record]]
molecule = "N#CCCN(Cc1ccccn1)C(=O)c1cccc(CN2CCCC2)c1"
readout_kind = "Percent Effect"
endpoint_value = 0.67

[[record]]
molecule = "COc1c(F)cc(-c2cccc3c2OC(CN)C3)cc1F (stereo not drawn)"
readout_kind = "Percent Effect"
endpoint_value = -4.2

[[record]]
molecule = "Cc1cccc(C)c1Nc1noc2c1CN(C(=O)c1c[nH]nc1C)CC2"
readout_kind = "Percent Effect"
endpoint_value = 6.37

[[record]]
molecule = "CC(C)(C)c1nc(CNc2cc3c(cc2Cl)NC(=O)CO3)no1"
readout_kind = "Percent Effect"
endpoint_value = 2.92

[[record]]
molecule = "CCc1c(C)nc2cc(-c3nccn3C)nn2c1N1CCCC(CO)C1 (stereo not drawn)"
readout_kind = "Percent Effect"
endpoint_value = 26

[[record]]
molecule = "Cc1cc(N2Cc3cnn(CCO)c3C2)nc(-c2ccccc2)n1"
readout_kind = "Percent Effect"
endpoint_value = 4.37

[[record]]
molecule = "CN1CCN(C2CCN(Cc3cn4ccccc4n3)CC2)C1=O"
readout_kind = "Percent Effect"
endpoint_value = 41.9

[[record]]
molecule = "CCc1nc(CCNc2ncccc2S(N)(=O)=O)sc1C"
readout_kind = "Percent Effect"
endpoint_value = -3.81

[[record]]
molecule = "COc1cccc(CN(C)Cc2[nH]c3ccccc3c2C)c1O"
readout_kind = "Percent Effect"
endpoint_value = -44.5

[[record]]
molecule = "CN1CCCC1CCNC(=O)c1ccccc1-n1cnc(CN)c1 (stereo not drawn)"
readout_kind = "Percent Effect"
endpoint_value = 7.02

[[record]]
molecule = "CC(C)c1nccn1CC1CCCN1Cc1nc2ccccc2n1C (stereo not drawn)"
readout_kind = "Percent Effect"
endpoint_value = 4.02

[[record]]
molecule = "COc1ccc(OCc2nc3cc4c(cc3c(=O)o2)OCCCO4)cc1"
readout_kind = "Percent Effect"
endpoint_value = -6.13

[[record]]
molecule = "COc1ccc(CN2CC[C@@]3(O)CCCC[C@H]3C2)cc1C(=O)O"
readout_kind = "Percent Effect"
endpoint_value = -10

[[record]]
molecule = "CC(C)C(CNC(=O)CCn1cncn1)N1CCc2ccccc2C1 (stereo not drawn)"
readout_kind = "Percent Effect"
endpoint_value = 0.687

[[record]]
molecule = "CC(C)(C)c1cn2c(n1)C(CNCc1cnn3ccccc13)CCC2 (stereo not drawn)"
readout_kind = "Percent Effect"
endpoint_value = -1.22

[[record]]
molecule = "Cc1nc2c(c(NCCNC(=O)C(C)C)n1)Cc1ccccc1OC2"
readout_kind = "Percent Effect"
endpoint_value = 3.56

[[record]]
molecule = "CCCOC1CCCN(c2ncnc3c2CCN(C(=O)C2CC2)C3)C1 (stereo not drawn)"
readout_kind = "Percent Effect"
endpoint_value = 3.46

[[record]]
molecule = "Cc1c(C(=O)NC2CCCC2)nnn1-c1ccccc1"
readout_kind = "Percent Effect"
endpoint_value = -3.83

[[record]]
molecule = "Cc1cc(C(=O)N2CCNC(=O)CC2)c(C)n1CC(F)(F)F"
readout_kind = "Percent Effect"
endpoint_value = -2.89

[[record]]
molecule = "O=C(C1CCCCN1Cc1nccn1CC(F)(F)F)N1CCCC1 (stereo not drawn)"
readout_kind = "Percent Effect"
endpoint_value = -9.13

[[record]]
molecule = "COC(CNC(=O)c1ccc[nH]1)c1cccc(Cl)c1 (stereo not drawn)"
readout_kind = "Percent Effect"
endpoint_value = 1.53

[[record]]
molecule = "COc1ccc(N2CCC(NS(=O)(=O)N(C)C(C)C)CC2)cc1"
readout_kind = "Percent Effect"
endpoint_value = 13.8

[[record]]
molecule = "CCc1c(C)nn2c(O)cc(C3CCN(C(=O)c4cnn(C)c4)C3)nc12 (stereo not drawn)"
readout_kind = "Percent Effect"
endpoint_value = 5.68

[[record]]
molecule = "CC(CNC(=O)c1cnc[nH]1)Oc1ccc(Cl)cc1 (stereo not drawn)"
readout_kind = "Percent Effect"
endpoint_value = 4.75

[[record]]
molecule = "O=C(c1coc(-c2ccccc2)n1)N1CCCC1"
readout_kind = "Percent Effect"
endpoint_value = 5.08

[[record]]
molecule = "CC(CN1CCOC1=O)NC(=O)c1cccc(Cl)c1Cl (stereo not drawn)"
readout_kind = "Percent Effect"
endpoint_value = 10

[[record]]
molecule = "CN(C)C(=O)CN1CCN(c2cc(N3CCCC3CO)ncn2)CC1 (stereo not drawn)"
readout_kind = "Percent Effect"
endpoint_value = -0.698

